experiment: qHTS drug screen for cell cycle checkpoint inhibitors in PARPi-resistant BRCA-mutant ovarian cancer cell lines. (AID 1963452); settings: PEO1/OlaR viability, CellTiter-Glo luminescence, 96 h; stronger effect = lower value
quantity_measured: Z-AUC
Could you keep your reply to the number by itself?

Input S=C(NCc1ccc2c(c1)OCO2)N1CCN(c2ncnc3c2oc2ccccc23)CC1 . Output Z-AUC: -0.165

###

assay: NFAT Signaling Pathway (AID 444); details: Jurkat NFAT-bla M1, carbachol, beta-lactamase ratio, 5 h; at 38 µM (top of the series);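 note: carbachol stimulus at about its EC50 of 1 µM final; % is set by controls: 0 for no effect and ±100 for the full control effect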
Results filed as inconclusive are left out.
quantity_measured: activity change, negative = inhibition (%)
Report as a plain number; the unit % is understood.

Input O=C1CCc2cc(OCCCCc3nnnn3C3CCCCC3)ccc2N1 . Output activity change, negative = inhibition: -9.05

Input Cc1[nH]c(=O)c(C#N)cc1-c1ccncc1 . Output activity change, negative = inhibition: -0.614

Input Nc1nc2ccc(OC(F)(F)F)cc2s1 . Output activity change, negative = inhibition: 13.4

Input O=c1[nH]cnc2[nH]ncc12 . Output activity change, negative = inhibition: 5.26

Input NCCc1ccc(O)c(O)c1 . Output activity change, negative = inhibition: 11.4

Input CCCCNc1cc(C(=O)O)cc(S(N)(=O)=O)c1Oc1ccccc1 . Output activity change, negative = inhibition: 7.04

###

Below: a set of entries, each annotated with reported z-score.
assay: qHTS for identification of novel therapeutic agents for treatment of microphthalmiaassociated transcription factor (MiT) renal cell carcinoma (RCC) (AID 1963991); conditions: TFE3-RCC viability, CellTiter-Glo, 48 h; measured here: UOK124 Z-AUC; stronger effect = lower value;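 note: curves scaled with 100% = DMSO viability and 0% = empty wells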
Results filed as inconclusive are left out.
Could you keep your reply to the number by itself?

Cc1n[nH]c(C)c1Cc1sc2c(c1C(=O)N1C[C@H](O)CO1)c(=O)n(C)c(=O)n2CC(C)C | 0.656
CCc1ccc(CCOc2ccc(CC3SC(=O)NC3=O)cc2)nc1 (stereo unspecified) | 0.584
COc1ccc(-c2ccc3c(N4CCOC[C@H]4C)nc(N4CCOC[C@H]4C)nc3n2)cc1CO | -2.87
O=C1CCC(N2C(=O)c3ccccc3C2=O)C(=O)N1 (stereo unspecified) | -0.79
CCOc1ccc(Cc2cc([C@@H]3O[C@H](CO)[C@@H](O)[C@H](O)[C@@H]3O)ccc2Cl)cc1 | 0.747

Input N[C@@H]1CONC1=O . Output z-score: 0.295

Input CCC(C)N(C)C(=O)c1cc2ccccc2c(-c2ccccc2Cl)n1 (stereo unspecified) . Output z-score: 0.425

Input Cc1ccccc1C(C(=O)NC1CCCC1)N(C(=O)Cn1cnc2ccccc21)c1cccc(F)c1 (stereo unspecified) . Output z-score: 0.839

Input CC(c1cc2ccccc2s1)N(O)C(N)=O (stereo unspecified) . Output z-score: 0.701

Input COc1ccc(CC2=NN3C([C@@H](CCc4ccccc4)[C@@H](C)O)=NC(C)C3C(=O)N2)cc1OC (stereo partly specified) . Output z-score: 0.967

###

test: qHTS Screen of the MIPE 4.0 Collection Against Ewings Sarcoma (TC71) (AID 1259253); details: TC71 Ewing sarcoma viability, CellTiter-Glo, 48 h; series mostly up to 45.8 µM; note: nearly all actives have a fitted effect of over 40% in size
Records with an inconclusive call do not appear. Calls of active or inactive are those of the source. Calls follow the shape of the dose curve; as a rule, active = well fitted inhibition curve with a large enough effect; inconclusive = small, poorly fitted or top-dose-only effect; inactive = no such curve, though single readings can be large or run the other way.
Outcome (select one): Y = active, N = inactive

# example entries with known answers
CCC(C)n1ncn(-c2ccc(N3CCN(c4ccc(OC[C@H]5CO[C@](Cn6cncn6)(c6ccc(Cl)cc6Cl)O5)cc4)CC3)cc2)c1=O (stereo not given in full) | N
Cc1ccc(-n2nc(C(C)(C)C)cc2NC(=O)Nc2ccc(OCCN3CCOCC3)c3ccccc23)cc1 | Y
O=C1CCc2cc(OCCCCc3nnnn3C3CCCCC3)ccc2N1 | N
C[C@H](NC(=O)Cc1cc(F)cc(F)c1)C(=O)N[C@@H]1C(=O)N(C)c2ccccc2-c2ccccc21 | Y

Now turn to the next compound.
Query block: Hello, I am checking results. What call was entered for N[C@@H]1CONC1=O ?
Result block: N
